The reported numbers originate from the supplement of paper PMC10849652.

- study_system: YOD1 (UniProt Q5VVQ6)
- Sequence (Q5VVQ6 whole entry, looked up): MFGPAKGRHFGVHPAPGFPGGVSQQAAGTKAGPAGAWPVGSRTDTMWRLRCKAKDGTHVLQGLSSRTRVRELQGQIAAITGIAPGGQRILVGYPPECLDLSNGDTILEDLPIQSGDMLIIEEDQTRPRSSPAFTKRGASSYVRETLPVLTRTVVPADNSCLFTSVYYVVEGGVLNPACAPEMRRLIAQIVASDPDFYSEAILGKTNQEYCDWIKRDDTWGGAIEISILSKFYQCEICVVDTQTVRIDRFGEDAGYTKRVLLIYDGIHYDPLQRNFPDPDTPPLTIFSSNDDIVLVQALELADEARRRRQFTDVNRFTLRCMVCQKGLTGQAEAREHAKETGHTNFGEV
- assay_name: log2 fold change, soluble protein after heating vs DMSO (PISA); higher = thermal stabilisation; K562 cells, 10 uM, 30 min; active = over 0.2 and 3.5 SD of the protein, either way, in both replicates (recomputed)
Of roughly 7,900 targets only a part is listed; those with a hit were picked by preference. About 0.6% of all pairs of compound and target were hits.
Note that class boundaries on log2 fold change are class 1 (below -0.03), class 2 (-0.03 to below 0.02), class 3 (0.02 or more)

**Q:** Category of Cc1cc(SCc2sc(-c3ccc(C(F)(F)F)cc3)nc2C)ccc1OCC(=O)O , please.
**A:** class 3

**Q:** Exercise: read the entry O=C1c2ccccc2-c2n[nH]c3cccc1c23 and state which class it falls under.
**A:** class 2

**Q:** Lab log: Cc1ccc(NC(=O)c2cccc(N(C)C)c2)cc1NC(=O)c1ccc(O)cc1 — assign log2 fold change category
**A:** class 2

**Q:** Input Nc1ccccc1NC(=O)c1ccc(CNC(=O)OCc2cccnc2)cc1 ; output its category
**A:** class 1

**Q:** Please report the category associated with O=C(CCCCCCC(=O)Nc1ccccc1)NO , nothing else.
**A:** class 3

**Q:** Exam item: assign CCn1c(C(=O)N(C2CC2)C2CC2)cc2c3c(ncn3C)c(Nc3cc(C)n(C)n3)nc21 to the correct category.
**A:** class 2

**Q:** Just checking, what class would you give Cc1nc(Nc2n[nH]c3c2CN(C(=O)N[C@H](CN(C)C)c2ccccc2)C3(C)C)c2sccc2n1 here?
**A:** class 1

**Q:** Place this compound in its band: Cc1cccc(CC(=O)N2CCc3c2ccc(-c2cn(C)c4ncnc(N)c24)c3F)n1
**A:** class 3

**Q:** Hi, small favor: classify CS(=O)(=O)N1CCN(Cc2cc3nc(-c4cccc5[nH]ncc45)nc(N4CCOCC4)c3s2)CC1 by its log2 fold change when you get a moment.
**A:** class 2

**Q:** The entry to classify is CC(=O)c1cnc2ccc(-c3cc(Cl)c(O)c(Cl)c3)nc2c1N[C@H]1CC[C@H](CN(C)C)CC1 ; which class holds it?
**A:** class 1

**Q:** The entry to classify is CC(C)c1cnn2c(NCc3ccccc3)cc(NCCCCCCN)nc12 ; which class holds it?
**A:** class 1

**Q:** Kindly state the category for this compound: COc1cccc2cc(-c3nc([C@H]4CC[C@H](C(=O)O)CC4)n4ncnc(N)c34)[nH]c12
**A:** class 2

**Q:** # bin label for C[C@@H](Oc1cc(-c2cnn(C3CCNCC3)c2)cnc1N)c1c(Cl)ccc(F)c1Cl
**A:** class 1

**Q:** // bin(item) where item = O=C(CCCCCCNC(=O)c1cnc(N(c2ccccc2)c2ccccc2Cl)nc1)NO
**A:** class 3

**Q:** Lab note: sort CN1CCN(CCOc2cc(OC3CCOCC3)c3c(Nc4c(Cl)ccc5c4OCO5)ncnc3c2)CC1 into the matching log2 fold change band.
**A:** class 1

**Q:** Which class holds NC1(c2ccc(-c3nc4ccn5c(=O)[nH]nc5c4cc3-c3ccccc3)cc2)CCC1 ?
**A:** class 1

**Q:** Band of CC1=C(C(=O)Nc2cc3cn[nH]c3cc2F)C(c2ccc(C(F)(F)F)cc2)CC(=O)N1 (stereo unspecified) ?
**A:** class 3

**Q:** // return the class label for CCCc1cc(C)[nH]c(=O)c1CNC(=O)c1cc(-c2ccnc(N3CCN(C)CC3)c2)cc2c1cnn2C(C)C
**A:** class 2

**Q:** Class for CN(CCOc1ccc(C[C@@H]2SC(=O)NC2=O)cc1)c1ccccn1 (racemic) ?
**A:** class 3

**Q:** Assign a category based on measured log2 fold change for CC[C@@H]1C(=O)N(C)c2cnc(Nc3ccc(C(=O)NC4CCN(C)CC4)cc3OC)nc2N1C1CCCC1 and give only the class name.
**A:** class 1

**Q:** For this compound, which bin applies? NC(=O)c1ccc2nc(-c3ccc(Oc4ccc(Cl)cc4)cc3)[nH]c2c1
**A:** class 2

**Q:** Please indicate the class for O=C1NC(=NCc2cccs2)S/C1=C\c1ccc2ncccc2c1 based on its log2 fold change.
**A:** class 3

**Q:** Hey, which category is CCN(CCCOc1ccc2c(Nc3cc(CC(=O)Nc4cccc(F)c4)[nH]n3)ncnc2c1)CCOP(=O)(O)O in, do you know?
**A:** class 3

**Q:** Band assignment needed for CC(C)(O)CC(=O)NCCn1ccc2ncnc(Nc3ccc(Oc4cccc(C(F)(F)F)c4)c(Cl)c3)c21 please.
**A:** class 1

**Q:** Band for the recorded log2 fold change of C[C@@H]1COCCN1c1cc(C2(S(C)(=O)=O)CC2)nc(-c2cccc3[nH]ccc23)n1 ?
**A:** class 3

**Q:** Exercise: read the entry C=CC(=O)N1CCC[C@@H](n2nc(-c3ccc(Oc4ccccc4)cc3)c3c(N)ncnc32)C1 and state which class it falls under.
**A:** class 2
